Task for the reader: assign each of the following variants its reported protein stability index.
B1: TIA1 (parent)
chain: TYECRCIGEEKEMWNFGEKYARF

Variants of: B1
EXPERIMENT_DESCRIPTION: protein stability index of a GFP-peptide fusion (GPS, HEK-293T) (PSI 1-6); higher = more stable;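 also: lentivirally expressed fusions sorted by FACS into six bins by GFP to DsRed ratio, PSI derived from sequencing read proportions per bin multiplied by bin number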
CONDITION_SUMMARY: c terminus: native
Give bare numbers.

Examples with answers:
mutant_label=R5E observed=2.02
mutant_label=F16M observed=3
mutant_label=N15G observed=2
mutant_label=T1H observed=2.31

Below are some variants; for each one, tell me its protein stability index.
1. F23E
2. E12F

[3.42, 3.56]

Below are some variants; for each one, tell me its protein stability index.
1. W14A
2. F23N
3. E3D
4. M13V

2.14
1.87
3.24
2.03

Below are some variants; for each one, tell me its protein stability index.
1. E12N
2. E18V

2.08
3

# credit: the supplement of paper PMC10567573
